# targetOfAssay: T1, Human CXCR2 (Homo sapiens, UniProt P25025)
# T1 sequence (P25025 1-360): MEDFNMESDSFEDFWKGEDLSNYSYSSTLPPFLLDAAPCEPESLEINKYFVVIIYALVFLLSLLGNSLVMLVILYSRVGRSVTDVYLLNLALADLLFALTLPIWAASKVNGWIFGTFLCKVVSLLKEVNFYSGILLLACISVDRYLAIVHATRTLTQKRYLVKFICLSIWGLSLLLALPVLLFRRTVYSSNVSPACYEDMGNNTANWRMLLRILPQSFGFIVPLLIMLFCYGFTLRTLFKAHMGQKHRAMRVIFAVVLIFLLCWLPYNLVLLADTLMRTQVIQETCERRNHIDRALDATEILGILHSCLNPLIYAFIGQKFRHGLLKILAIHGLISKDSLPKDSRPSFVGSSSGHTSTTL
# measurementNotes: cELISA of hybridoma supernatants on cells transfected with human CXCR2
# Assay type: binding
# Design: host or cells: Expi293F cells, vector pTT5
# measurementSetup: hybridoma supernatant; fluorescence units relative to positive control (100%)
measuredParameter: Human CXCR2 % Positive (%)
Report as a plain number; the unit % is understood.

Problem: Which Human CXCR2 % Positive value belongs to BKO-1D1: VH SEQ ID NO: 5, VL SEQ ID NO: 6 (antibody, V domains shown, BKO_1D1_VH; BKO_1D1_VL) VH: EVQLLESGGGLVQPGGSLRLSCAASKLTFKNSAMSWVRQAPGKGLEWVSAITGSGGRTYYADSVKGRFTISRDNSKNTLYLQMNSLRAEDTAIYYCAIQMGYWGQGILVTVSS VL: QSALTQPPSASGSPGQSVTISCTGTSSDVGGYNYVSWYQQHPGKAPKLMIYEVNKRPSGVPARFSGSKSGNTASLTVSGLQAEDEADYYCSSYAGSNNFGVFGGGTKLTVL ?
Solution: 67
